Task for the reader: assign each of the following compounds its reported EC50.
# TARGET_SYSTEM: Bile acid receptor (Homo sapiens, UniProt Q96RI1)
# Sequence (Q96RI1 whole entry, the tested form may be a part): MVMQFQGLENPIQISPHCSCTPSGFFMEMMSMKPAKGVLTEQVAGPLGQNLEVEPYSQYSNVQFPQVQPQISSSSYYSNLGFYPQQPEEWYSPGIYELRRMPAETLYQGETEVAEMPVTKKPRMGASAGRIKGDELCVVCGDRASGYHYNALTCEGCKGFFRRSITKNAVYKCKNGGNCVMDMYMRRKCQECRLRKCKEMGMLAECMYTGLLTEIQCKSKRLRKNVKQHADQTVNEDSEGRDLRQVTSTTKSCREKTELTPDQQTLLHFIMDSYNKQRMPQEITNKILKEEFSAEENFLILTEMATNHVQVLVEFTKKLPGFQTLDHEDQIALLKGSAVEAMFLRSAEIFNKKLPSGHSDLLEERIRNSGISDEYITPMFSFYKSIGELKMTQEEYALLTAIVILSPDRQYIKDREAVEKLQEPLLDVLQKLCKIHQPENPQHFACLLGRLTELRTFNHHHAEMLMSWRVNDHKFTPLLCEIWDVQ
# ASSAY_NOTES: Agonist activity at FXR LBD (unknown origin) using fluorescein-SRC2-2 as substrate incubated for 3 hrs by TR-FRET assay

{"COMPOUND": "CC(C)CN(c1ccc(-c2ccc(C(=O)NC3CC3)cc2)cc1)S(=O)(=O)c1c(Cl)cccc1Cl", "EC50": "> 10 µM"}
{"COMPOUND": "CC(C)CN(c1ccc(-c2cccc(C(=O)O)c2)cc1)S(=O)(=O)c1c(Cl)cccc1Cl", "EC50": "> 10 µM"}
{"COMPOUND": "CC(C)CN(c1ccc(-c2ccc(C(=O)O)cc2)cc1)S(=O)(=O)c1c(Cl)cccc1Cl", "EC50": "3.5 µM"}

Look at each compound and report its EC50.
1. Cc1ccc(S(=O)(=O)N(CC(C)C)c2ccc(-c3ccc(CCC(=O)O)cc3)cc2)cc1
2. CC(C)CN(c1ccc(COc2cccc(CC(=O)O)c2)cc1)S(=O)(=O)c1c(Cl)cccc1Cl
3. CC(C)CN(c1ccc(-c2ccc(OCC(=O)O)cc2)cc1)S(=O)(=O)c1c(Cl)cccc1Cl
4. CC#CC(CC(=O)O)c1ccc(OCc2ccc(N(CC(C)C)S(=O)(=O)c3c(Cl)cccc3Cl)cc2)cc1 (centres undefined)

1: > 10 µM; 2: > 10 µM; 3: 0.89 µM; 4: > 10 µM

Look at each compound and report its EC50.
1. CC(C)CN(c1ccc(-c2cccc(CC(=O)O)c2)cc1)S(=O)(=O)c1c(Cl)cccc1Cl
2. CC(C)CN(c1ccc(-c2ccc(OC(C)C(=O)O)c(F)c2)cc1)S(=O)(=O)c1c(Cl)cccc1Cl (centres undefined)

1. > 10 µM
2. 8.7 µM
